# measurementDescription: in vitro
# testSettings: male, C57BL/6J, mouse, blood
Numbered stars: 1 amine (or outer) side, 2 acyl side, 3 side chain; on linkers, the order of the positions; unused ones are H or OH. Square brackets hold non-standard residues; d marks the D form. Peptide text beside a SMILES is read from it. azaPhe = O=C(N(Cc1ccccc1)N[*:1])[*:2]; azaPro = O=C(N1CCCN1[*:1])[*:2]; azaGly = NNC(=O)O
property: log10 of half-life (log10 of the value in min)

1. N=C(N)NCCC[C@H](NC(=O)N(Cc1ccccc1)NC(=O)[C@@H]1CCCN1C(=O)[C@H](CO)NC(=O)[C@H](Cc1ccccc1)NC(=O)CNC(=O)[C@@H]1CCCN1C(=O)[C@@H]1CCCN1C(=O)[C@@H](N)CCCNC(=N)N)C(=O)O [Compound 68, RPPGFSPazaF^8R] (H-RPPGFSP[azaPhe]R-OH; N-terminus and C-terminus assumed); 1.59
2. N=C(N)NCCC[C@H](NC(=O)[C@H](Cc1ccccc1)NC(=O)[C@@H]1CCCN1C(=O)[C@H](CO)NC(=O)[C@H](Cc1ccccc1)NC(=O)CNC(=O)N1CCCN1C(=O)[C@@H]1CCCN1C(=O)[C@@H](N)CCCNC(=N)N)C(=O)O [Compound 64, RPazaP^3GFSPFR]; 0.42
3. N=C(N)NCCC[C@H](NC(=O)[C@H](Cc1ccccc1)NC(=O)[C@@H]1CCCN1C(=O)[C@H](CO)NC(=O)N(Cc1ccccc1)NC(=O)CNC(=O)[C@@H]1CCCN1C(=O)[C@@H]1CCCN1C(=O)[C@@H](N)CCCNC(=N)N)C(=O)O [Compound 66, RPPGazaF^5SPFR] (H-RPPG[azaPhe]SPFR-OH; N-terminus and C-terminus assumed); 1.17
4. N=C(N)NCCC[C@H](NC(=O)[C@H](Cc1ccccc1)NC(=O)[C@@H]1CCCN1C(=O)[C@H](CO)NC(=O)[C@H](Cc1ccccc1)NC(=O)CNC(=O)[C@@H]1CCCN1C(=O)N1CCCN1C(=O)[C@@H](N)CCCNC(=N)N)C(=O)O [Compound 63, RazaP^2PGFSPFR] (H-R[azaPro]PGFSPFR-OH; N-terminus and C-terminus assumed); 0.73
5. N=C(N)NCCC[C@H](NC(=O)[C@H](Cc1ccccc1)NC(=O)[C@@H]1CCCN1C(=O)[C@H](CO)NC(=O)[C@H](Cc1ccccc1)NC(=O)NNC(=O)[C@@H]1CCCN1C(=O)[C@@H]1CCCN1C(=O)[C@@H](N)CCCNC(=N)N)C(=O)O [Compound 65, RPPazaG^4FSPFR] (H-RPP[azaGly]FSPFR-OH; N-terminus and C-terminus assumed); 0.64
